# procedure summary: Human HepG2 cell viability assay in 384 well format
# Format: toxicity, cell-based
# Design: dose 125 nL, time 70.5 hour; concentration not given beside the values
# assay conditions: HepG2 cells, read-out: Inhibition
Exercise: state measured cytotoxicity at 70.5 h for each of the molecules provided.
Return type: number; implicit unit %.

input: Would you mind telling me what cytotoxicity at 70.5 h value was observed for c1ccc(-n2ccnc2)c(CNCC2CNc3ccnn3C2)c1 (centres undefined) ?
output: -20.8

input: Now give it for "CCc1ccc(S(=O)(=O)Nc2cn(C)cc(Br)c2=O)cc1" too.
output: 7.59

input: How about this molecule: "O=C(NCc1nc(NC2CCCC2)c2cc(Cl)ccc2n1)c1ccoc1"
output: 5.65

input: Also "CCN1CCN(c2ncc3c(n2)CN(c2cnn(CC)c2)C3=O)CC1" , if possible.
output: -6.35

input: Same again, this time with "COc1ccc(Br)cc1CCC(=O)N1CCSCC1"
output: 8.26

input: Okay, and "Oc1ccc(Cl)cc1CNCc1ccccc1Cl" ?
output: -8.63

input: Would you mind doing N#CCCCS(=O)(=O)N1CCCC1CC(=O)c1cccs1 (centres undefined) as well?
output: -6.62

input: What about CC(NC(=O)CCCn1cnc2ccccc2c1=O)c1ncn[nH]1 (centres undefined) ?
output: -15.2

input: What about this molecule? "CSCCCN1CC[C@@H](NC(=O)c2cnccn2)[C@H](O)C1"
output: -10.8

input: Also check "O=C(CN1CCCS1(=O)=O)NCCOc1ccc2c(c1)CCC2"
output: 5.58

input: Try "CC(C)c1nc2c(n1C)CCN(Cc1cccc(C(N)=O)c1)C2" next.
output: -13.9

input: Next up: "O=C(O)c1ccccc1-c1ccc(CN2CC(c3ccncn3)C2)o1"
output: -5.44

input: Same lookup for "O=C(CCc1ccco1)Nc1cccc(S(=O)(=O)C(F)F)c1" , please.
output: -9.11

input: And Cc1nccn1CCC1CCCCN1C(=O)c1ccc2nonc2c1 (centres undefined) ?
output: -1.05

input: Item: "CC(C)c1nn(C)c(N2CCOCC2)c1CN[C@H](C)CO"
output: -1.16

input: CN(C)S(=O)(=O)N1CCC(OCCCc2ccccc2)C1 (centres undefined) , same question.
output: -0.922

input: Now the same for Cc1ccc(CN2Cc3cnn(C)c3C(COCC3CC3)C2)o1 (centres undefined)
output: 2.56

input: Now consider "CCN1CCN(C2CCN(Cc3noc(C)n3)CC2)C1=O" and answer again.
output: 28.4

input: Continue with "Cc1oc(C(=O)O)cc1S(=O)(=O)Nc1cccc(Cl)c1F"
output: -7.29

---

# procedure summary: Human HepG2 cell viability assay in 384 well format
# Assay type: toxicity, cell-based
# Design: dose 125 nL, time 70.5 hour; concentration not given beside the values
# assay conditions: HepG2 cells, read-out: Inhibition
So I've got a bunch of molecules here, and I need their cytotoxicity at 70.5 h values.
Respond with the bare value in %.

input: Which measured cytotoxicity at 70.5 h value corresponds to Cn1ccc(C(=O)N2CCCC(Cc3cnc4ccccc4c3)C2)n1 (stereo not given) ?
output: -1.48

input: And what about the molecule "c1cncc(OC[C@@H]2CCC[C@@]23CNCCO3)c1" ?
output: 14.3

input: What do we get for Cc1nc(CNC(=O)NC(C)c2ccc3c(c2)OCCO3)cs1 (stereo not given) ?
output: 53.9

input: Let us now turn to "c1csc(-c2noc(C3CN(Cc4ccc5c(c4)CCO5)C3)n2)c1"
output: -9.73

input: Can you check Cc1nnc2n1CCN(C(C(=O)N1CCCCC1)c1ccccc1)C2 (stereo not given) next?
output: -1.38

input: Let us now turn to "O=C(Nc1ccc2c(c1)OCCO2)N1CCCN(Cc2cccs2)CC1"
output: 0.682

input: Entry to check: "NC(=O)C1CCN(C(=O)c2cccn2Cc2cccs2)CC1"
output: -4.99

input: Now the same for CCC(Nc1cccc(Oc2ccc(C#N)cc2)c1)C(N)=O (stereo not given)
output: -4.69

input: Another molecule to check: "CSc1ncccc1C(=O)N1CCC2(CC1)c1nc[nH]c1CCN2C"
output: 7.45

input: Continue with CC(Oc1ccc(F)cc1)C(=O)N(CC(N)=O)C1CCCC1 (stereo not given)
output: 0.347

input: Can you handle COCC1CN(C(=O)c2ccco2)Cc2cn(C)nc21 (stereo not given) next?
output: 3.61

input: # repeat for "CCN(CC(=O)NC)C(=O)Cc1nc(-c2ccco2)oc1C"
output: -7.15

input: Another molecule: O=C(NCCCOC1CCOC1)NC(C1CC1)C1CC1 (stereo not given)
output: 5.31

input: Now try "CC(C)=CCN1CCN(CCCOc2ccccc2)[C@H]2CS(=O)(=O)C[C@H]21" .
output: -4.88

input: Same for Cc1ccc(C(=O)NCC(O)CN2CCCC2=O)c(C)c1 (stereo not given)
output: -1.64

input: And the next one, OCC1CCCN(Cc2c(C3CCCC3)[nH]c3ncccc23)C1 (stereo not given) ?
output: 13.9

input: Same lookup for CCC1CN(C(=O)c2ccccc2C(C)=O)CCN1C(C)C (stereo not given) , please.
output: -4.04

input: Lookup "COc1ccc(-c2nc(CC(=O)N(C)CCC#N)cs2)cc1OC"
output: 5.07

input: Moving on to the next molecule: "Cc1cccc(C(=O)N2CCN(S(C)(=O)=O)[C@@H](C)C2)c1Cl"
output: -102

input: Same question for Cc1ccccc1-c1noc(C2CC(C(C)C)=NO2)n1 (stereo not given) please.
output: -0.419

input: And CCOC(=O)N1CCN(C(=O)C2Cc3ccccc3CN2C)CC1 (stereo not given) ?
output: 2.75

input: Moving on to the next molecule: NCc1cn(CC2CCCN(C(=O)CC3=CCCCC3)C2)nn1 (stereo not given)
output: -11.9

input: Queued: "O=C(CN1CCN(CCO)CC1)NC(C1CC1)C1CC1"
output: -5.18

input: Queued: CCOc1ncccc1C(=O)N1CCCC(c2nccn2CCOC)C1 (stereo not given)
output: -9.63

input: // same read-out, input: O=C(NCc1cccs1)NCC(O)(c1cccs1)C1CC1 (stereo not given)
output: -12.2

input: Quick one: Nc1cc(C(=O)NC2CCCN(CCCc3ccccc3)C2)ccn1 (stereo not given)
output: 12.3

input: For CCOC(C)c1nccn1Cc1c(C)noc1C (stereo not given) then?
output: -2.96

input: Consider next the molecule "CC(=O)N1Cc2ccccc2C[C@H]1C(=O)N(C)CCc1ccccn1" in the same way.
output: 19.3

input: Quick one: "O=C(NCc1ccnc(O)c1)NCC1CCCC1"
output: -1.59

input: What do we get for "CCn1c(Cn2cncn2)nnc1C1CCN(Cc2cccnc2)CC1" ?
output: 9.57

---

# procedure summary: Human HepG2 cell viability assay in 384 well format
# Assay type: toxicity, cell-based
# Parameters: dose 125 nL, time 70.5 hour; concentration not given beside the values
# assay conditions: HepG2 cells, read-out: Inhibition
experimental endpoint: cytotoxicity at 70.5 h (%)
Numeric only. Scale: %

input: Please look up its cytotoxicity at 70.5 h: "Cc1cc(NC(=O)c2ccc(F)cc2Cl)n(C)n1"
output: 6.57

input: Now consider Cc1cnc(C(=O)N2CCC3(CCN(Cc4ccccn4)C3=O)C2)cn1 (stereo not drawn) .
output: 6.84

input: Subsequent entry: "CC1=N[C@@]2(CC[C@@H]3CN(S(=O)(=O)CC(C)C)C[C@@H]32)C(=O)N1C"
output: -10.5

input: Same thing, different molecule: COC(=O)N1CCCC(NC(=O)NCc2cccc(C)n2)C1 (stereo not drawn)
output: -6.49

input: Now the molecule "CN(CCCc1nccn1C)C(=O)C1CCN(C(=O)C2CC2)CC1"
output: 0.477

input: Consider next the molecule Cc1cc(NCC(=O)N(C)C(C)c2cccs2)c(C(N)=O)cc1F (stereo not drawn) in the same way.
output: 1.44

input: Then OC(CN1CCN(CC2CCCCC2)CC1)c1ccccc1 (stereo not drawn) ?
output: -8.48

input: Record: CN(C)Cc1cnn(-c2ccccc2C(=O)NCCC2CCCN2C)c1 (stereo not drawn)
output: -0.0444

---

# procedure summary: Human HepG2 cell viability assay in 384 well format
# Format: toxicity, cell-based
# Design: dose 125 nL, time 70.5 hour; concentration not given beside the values
# assay conditions: HepG2 cells, read-out: Inhibition
Provide the recorded cytotoxicity at 70.5 h for the entries that follow.
Answer format: numeric, % implied, no suffix.

input: Report cytotoxicity at 70.5 h for Cc1nc(C)n(CC(C)C(=O)N2CCC(NS(C)(=O)=O)CC2)n1 (stereo not drawn) please.
output: 34.2

input: And "FC(F)(F)Cn1ccnc1CNCCn1cccn1" ?
output: -6.92

input: Now the compound COCC(=O)N1Cc2cn(C)nc2C(COc2cccnc2)C1 (stereo not drawn)
output: 9.02

input: Follow-up item: "Cc1nn(CCCNC(=O)C2CCN(S(C)(=O)=O)CC2)c(Cl)c1Cl"
output: -7.28

input: Another compound to look at: "COc1cccc2cc(CNCc3ccc(N4CCCC4)nc3)oc12"
output: 16

input: Same question for "CCC[C@H]1CN(Cc2ccc3c(c2)OCCO3)C[C@@H]1NC(=O)COC" please.
output: 3.4

input: Try the compound COCCOCc1cccc(NC(=O)N2CCCC2c2ccncc2)c1 (stereo not drawn)
output: 1.97

input: Another compound: O=C(NCCn1cccc1)C1CCC(=O)N(C2CCCC2)C1 (stereo not drawn)
output: -8.05
